# experimental-target: ACVR1B (human)
# assay-remarks: KINOMEscan competition binding
# measurement-setup: compound 10.0 µM
Here the recorded kinase still bound, per cent of control is given for each entry.
observation-type: kinase still bound, per cent of control

INSERT INTO assay_data (compound, observation_type, endpoint_value) VALUES
  ('CCCS(=O)(=O)Nc1ccc(F)c(C(=O)c2c[nH]c3ncc(Cl)cc23)c1F', 'kinase still bound, per cent of control', '98%'),
  ('COc1cc(C)c(Sc2cnc(NC(=O)c3ccc(CNC(C)C(C)C)cc3)s2)cc1C(=O)N1CCN(C(C)=O)CC1 (stereo not given)', 'kinase still bound, per cent of control', '100%'),
  ('CC1=C(C(=O)Nc2cc3cn[nH]c3cc2F)C(c2ccc(C(F)(F)F)cc2)CC(=O)N1 (stereo not given)', 'kinase still bound, per cent of control', '94%'),
  ('CCOc1cc(N2CCC(O)CC2)ccc1Nc1ncc2c(n1)N(C)c1ccccc1C(=O)N2C', 'kinase still bound, per cent of control', '100%'),
  ('CNC(=O)Nc1ccc(-c2nc(N3CC4CCC(C3)O4)c3cnn(C4CCC5(CC4)OCCO5)c3n2)cc1', 'kinase still bound, per cent of control', '100%');

###

# Test system: EGFR (human), P00533 [L858R]
# assay-remarks: KINOMEscan competition binding
# measurement-setup: compound 10.0 µM
observation-type: kinase still bound, per cent of control (%)

INSERT INTO results (molecule, observation_type, endpoint_value) VALUES
  ('O=C(O)c1ccc(Nc2ncc3c(n2)-c2ccc(Cl)cc2C(c2c(F)cccc2F)=NC3)cc1', 'kinase still bound, per cent of control', 29),
  ('Cc1ccc(NC(=O)c2cccc(C(C)(C)C#N)c2)cc1Nc1ccc2ncn(C)c(=O)c2c1', 'kinase still bound, per cent of control', 48),
  ('CCN1CCN(Cc2ccc(NC(=O)c3ccc(C)c(/C=C/c4cnc5[nH]ccc5c4OC)c3)cc2C(F)(F)F)CC1', 'kinase still bound, per cent of control', 0.1),
  ('CC1=C(C(=O)Nc2cc3cn[nH]c3cc2F)C(c2ccc(C(F)(F)F)cc2)CC(=O)N1 (stereo not given)', 'kinase still bound, per cent of control', 90),
  ('COc1cc2ncnc(Nc3cccc(Cl)c3)c2cc1OC', 'kinase still bound, per cent of control', 0.05);

###

kinase still bound, per cent of control values for the compounds below.
# experimental-target: UniProt P07948
# Sequence (P07948 whole entry, looked up): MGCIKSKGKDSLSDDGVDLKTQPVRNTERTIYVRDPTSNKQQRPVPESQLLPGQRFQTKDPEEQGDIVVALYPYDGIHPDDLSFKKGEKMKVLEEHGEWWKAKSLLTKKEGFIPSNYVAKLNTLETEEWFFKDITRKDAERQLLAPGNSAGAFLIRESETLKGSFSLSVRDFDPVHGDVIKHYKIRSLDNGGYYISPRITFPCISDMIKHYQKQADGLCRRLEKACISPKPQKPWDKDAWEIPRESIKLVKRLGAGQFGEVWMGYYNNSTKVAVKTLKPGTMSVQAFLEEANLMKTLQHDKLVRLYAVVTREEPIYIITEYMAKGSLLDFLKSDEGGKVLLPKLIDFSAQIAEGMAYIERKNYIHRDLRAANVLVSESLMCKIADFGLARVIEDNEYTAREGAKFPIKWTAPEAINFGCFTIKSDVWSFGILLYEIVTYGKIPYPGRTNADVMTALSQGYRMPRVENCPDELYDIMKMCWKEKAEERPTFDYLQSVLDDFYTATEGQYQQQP
# assay-remarks: KINOMEscan competition binding
# measurement-setup: compound 10.0 µM
observation-type: kinase still bound, per cent of control

INSERT INTO measurements (compound, experimental_target, endpoint_value) VALUES
  ('CCN1CCN(Cc2ccc(NC(=O)c3ccc(C)c(/C=C/c4cnc5[nH]ccc5c4OC)c3)cc2C(F)(F)F)CC1', 'UniProt P07948', '0%'),
  ('CCOc1cc(N2CCC(O)CC2)ccc1Nc1ncc2c(n1)N(C)c1ccccc1C(=O)N2C', 'UniProt P07948', '100%'),
  ('COc1ccc(N(C(=O)Oc2cc(C(=O)Nc3cccc(C(F)(F)F)c3)ccc2C)c2ccnc(Nc3ccc(N4CCN(C)CC4)cc3)n2)c(OC)c1', 'UniProt P07948', '0.95%'),
  ('N#C/C(=C1/Nc2ccccc2S1)c1ccnc(NCCc2cccnc2)n1', 'UniProt P07948', '100%'),
  ('COc1cc(N2CCC(C(N)=O)CC2)ccc1Nc1nc(N)c(Cl)c(Nc2ccccc2S(=O)(=O)C(C)C)n1', 'UniProt P07948', '100%'),
  ('COc1cc2ncnc(Nc3cccc(Cl)c3)c2cc1OC', 'UniProt P07948', '11%'),
  ('O=c1[nH]c2ccccc2n1C1CCN(Cc2ccc(-c3nc4cc5[nH]cnc5cc4nc3-c3ccccc3)cc2)CC1', 'UniProt P07948', '72%'),
  ('Cc1cn(-c2cc(C(=O)Nc3ccc(C)c(NC(=O)c4ccno4)c3)cc(C(F)(F)F)c2)cn1', 'UniProt P07948', '4.8%'),
  ('COc1cc2c(Nc3ccc(NC(=O)c4ccccc4)cc3)ncnc2cc1OCCCN1CCOCC1', 'UniProt P07948', '7.2%');

###

# key: entry, value: kinase still bound, per cent of control
# experimental-target: AURKA (human) (UniProt O14965)
# Sequence (O14965 whole entry, looked up): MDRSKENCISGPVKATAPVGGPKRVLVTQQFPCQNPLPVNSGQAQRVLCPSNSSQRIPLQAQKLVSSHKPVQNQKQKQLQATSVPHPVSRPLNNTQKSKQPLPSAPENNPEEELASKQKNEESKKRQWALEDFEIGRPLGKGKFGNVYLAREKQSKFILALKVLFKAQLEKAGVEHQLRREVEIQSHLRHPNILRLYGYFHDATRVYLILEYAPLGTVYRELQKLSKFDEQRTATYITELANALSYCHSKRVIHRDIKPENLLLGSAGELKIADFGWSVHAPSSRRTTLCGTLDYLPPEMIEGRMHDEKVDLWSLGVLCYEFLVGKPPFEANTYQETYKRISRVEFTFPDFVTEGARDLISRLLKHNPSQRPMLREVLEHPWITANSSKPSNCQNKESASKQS
# assay-remarks: KINOMEscan competition binding
# measurement-setup: compound 10.0 µM
observation-type: kinase still bound, per cent of control (%)

INSERT INTO results (compound, experimental_target, observation_type, scale_unit, endpoint_value) VALUES
  ('N#C/C(=C1/Nc2ccccc2S1)c1ccnc(NCCc2cccnc2)n1', 'AURKA (human) (UniProt O14965)', 'kinase still bound, per cent of control', '%', 100),
  ('CCN1CCN(Cc2ccc(NC(=O)c3ccc(C)c(/C=C/c4cnc5[nH]ccc5c4OC)c3)cc2C(F)(F)F)CC1', 'AURKA (human) (UniProt O14965)', 'kinase still bound, per cent of control', '%', 97),
  ('O=c1[nH]c2ccccc2n1C1CCN(Cc2ccc(-c3nc4cc5[nH]cnc5cc4nc3-c3ccccc3)cc2)CC1', 'AURKA (human) (UniProt O14965)', 'kinase still bound, per cent of control', '%', 68),
  ('Cc1cn(-c2cc(C(=O)Nc3ccc(C)c(NC(=O)c4ccno4)c3)cc(C(F)(F)F)c2)cn1', 'AURKA (human) (UniProt O14965)', 'kinase still bound, per cent of control', '%', 100),
  ('N#Cc1cc(-c2ccnc(Nc3ccc(-n4cnc(-c5cccnc5)n4)cc3)n2)cc(N2CCOCC2)c1', 'AURKA (human) (UniProt O14965)', 'kinase still bound, per cent of control', '%', 93),
  ('COc1cc2c(Nc3ccc(NC(=O)c4ccccc4)cc3)ncnc2cc1OCCCN1CCOCC1', 'AURKA (human) (UniProt O14965)', 'kinase still bound, per cent of control', '%', 8.6),
  ('CC(=O)c1c(C)c2cnc(Nc3ccc(N4CCNCC4)cn3)nc2n(C2CCCC2)c1=O', 'AURKA (human) (UniProt O14965)', 'kinase still bound, per cent of control', '%', 83),
  ('CCc1nc(-c2cccc(C)c2)c(-c2ccnc(NC(=O)c3ccccc3)c2)s1', 'AURKA (human) (UniProt O14965)', 'kinase still bound, per cent of control', '%', 90);

###

# experimental-target: CLK4 (human) (UniProt Q9HAZ1)
# Sequence (Q9HAZ1 whole entry, looked up): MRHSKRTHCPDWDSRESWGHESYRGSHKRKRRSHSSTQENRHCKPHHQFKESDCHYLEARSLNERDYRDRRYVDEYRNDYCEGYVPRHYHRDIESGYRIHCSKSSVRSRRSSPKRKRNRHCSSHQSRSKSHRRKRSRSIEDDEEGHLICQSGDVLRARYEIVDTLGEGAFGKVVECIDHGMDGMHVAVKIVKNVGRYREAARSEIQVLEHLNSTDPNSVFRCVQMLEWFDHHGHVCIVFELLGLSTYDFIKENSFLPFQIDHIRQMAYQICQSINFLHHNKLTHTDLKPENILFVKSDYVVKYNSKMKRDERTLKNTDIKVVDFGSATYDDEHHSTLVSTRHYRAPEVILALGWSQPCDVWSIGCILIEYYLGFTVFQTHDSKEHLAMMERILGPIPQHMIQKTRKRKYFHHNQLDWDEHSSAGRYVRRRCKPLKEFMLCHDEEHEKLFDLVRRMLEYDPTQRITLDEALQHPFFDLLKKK
# assay-remarks: KINOMEscan competition binding
# measurement-setup: compound 10.0 µM
Each entry below lists one item and its recorded kinase still bound, per cent of control value.
observation-type: kinase still bound, per cent of control

INSERT INTO results (molecule, observation_type, endpoint_value) VALUES
  ('Cc1cn(-c2cc(C(=O)Nc3ccc(C)c(NC(=O)c4ccno4)c3)cc(C(F)(F)F)c2)cn1', 'kinase still bound, per cent of control', '100%'),
  ('C=CC(=O)Nc1ccc(C(=O)c2sc(Nc3ccc(N4CCN(C)CC4)cc3OC)nc2N)cc1', 'kinase still bound, per cent of control', '1.6%'),
  ('COc1cc(C)c(Sc2cnc(NC(=O)c3ccc(CNC(C)C(C)C)cc3)s2)cc1C(=O)N1CCN(C(C)=O)CC1 (centres undefined)', 'kinase still bound, per cent of control', '33%'),
  ('CCN(CCO)CCCOc1ccc2c(Nc3cc(CC(=O)Nc4cccc(F)c4)[nH]n3)ncnc2c1', 'kinase still bound, per cent of control', '36%'),
  ('COc1cc(N2CCC(C(N)=O)CC2)ccc1Nc1nc(N)c(Cl)c(Nc2ccccc2S(=O)(=O)C(C)C)n1', 'kinase still bound, per cent of control', '5.5%'),
  ('N#C/C(=C1/Nc2ccccc2S1)c1ccnc(NCCc2cccnc2)n1', 'kinase still bound, per cent of control', '29%'),
  ('CCCS(=O)(=O)Nc1ccc(F)c(C(=O)c2c[nH]c3ncc(Cl)cc23)c1F', 'kinase still bound, per cent of control', '51%'),
  ('O=c1[nH]c2ccccc2n1C1CCN(Cc2ccc(-c3nc4cc5[nH]cnc5cc4nc3-c3ccccc3)cc2)CC1', 'kinase still bound, per cent of control', '95%'),
  ('CCOc1cc(N2CCC(O)CC2)ccc1Nc1ncc2c(n1)N(C)c1ccccc1C(=O)N2C', 'kinase still bound, per cent of control', '100%');

###

# experimental-target: ULK1 (human)
# assay-remarks: KINOMEscan competition binding
# measurement-setup: compound 10.0 µM
Reported kinase still bound, per cent of control is given for each of the following compounds.
observation-type: kinase still bound, per cent of control (%)

INSERT INTO assay_data (compound, observation_type, endpoint_value) VALUES
  ('N#C/C(=C1/Nc2ccccc2S1)c1ccnc(NCCc2cccnc2)n1', 'kinase still bound, per cent of control', 36),
  ('CCc1nc(-c2cccc(C)c2)c(-c2ccnc(NC(=O)c3ccccc3)c2)s1', 'kinase still bound, per cent of control', 69),
  ('CCN(CCO)CCCOc1ccc2c(Nc3cc(CC(=O)Nc4cccc(F)c4)[nH]n3)ncnc2c1', 'kinase still bound, per cent of control', 76),
  ('Cc1cn(-c2cc(C(=O)Nc3ccc(C)c(NC(=O)c4ccno4)c3)cc(C(F)(F)F)c2)cn1', 'kinase still bound, per cent of control', 100),
  ('CCCS(=O)(=O)Nc1ccc(F)c(C(=O)c2c[nH]c3ncc(Cl)cc23)c1F', 'kinase still bound, per cent of control', 44),
  ('COc1cc(N2CCC(C(N)=O)CC2)ccc1Nc1nc(N)c(Cl)c(Nc2ccccc2S(=O)(=O)C(C)C)n1', 'kinase still bound, per cent of control', 100),
  ('CCN1CCN(Cc2ccc(NC(=O)c3ccc(C)c(/C=C/c4cnc5[nH]ccc5c4OC)c3)cc2C(F)(F)F)CC1', 'kinase still bound, per cent of control', 8.5),
  ('CC(=O)c1c(C)c2cnc(Nc3ccc(N4CCNCC4)cn3)nc2n(C2CCCC2)c1=O', 'kinase still bound, per cent of control', 3.1),
  ('CC1=C(C(=O)Nc2cc3cn[nH]c3cc2F)C(c2ccc(C(F)(F)F)cc2)CC(=O)N1 (centres undefined)', 'kinase still bound, per cent of control', 74);
